Reference source: patent EP2608671B1

test system: PC-3; experiment: cells; conditions: Homo sapiens, PC-3, 96 h, read-out: IC50 ± SEM (nM), PC-3
Please go through the items and note down their IC50.

Example entries and their recorded answers appear below.
MOLECULE	REPORTED_ENDPOINT	RESULT
COc1cc(C(=O)c2c[nH]c(Nc3ccccc3)n2)cc(OC)c1OC	IC50	> 1000 nM
COc1cc(-c2csc(-c3ccccc3)n2)cc(OC)c1OC	IC50	> 10000 nM
O=C(c1ccc(F)cc1)c1cn(S(=O)(=O)c2ccccc2)c(-c2ccccc2C(F)(F)F)n1 [11ib]	IC50	> 10000 nM
COc1cc(C(=O)c2cc(-c3ccccc3)on2)cc(OC)c1OC	IC50	> 10000 nM

Hey, quick one: what's IC50 for each of these?
1. CO/N=C(/c1cc(OC)c(OC)c(OC)c1)c1csc(-c2ccccc2)n1 [2f-cis]
2. COc1cc(C(=O)N2CCC(c3ccccc3)CC2)cc(OC)c1OC
3. CO/N=C(\c1cc(OC)c(OC)c(OC)c1)c1csc(-c2ccccc2)n1 [2f-trans]
4. COc1cc(/C(=N\O)c2csc(-c3ccccc3)n2)cc(OC)c1OC [2e-trans]
5. COc1cc(NS(=O)(=O)c2cccc(-c3ccccc3)c2)cc(OC)c1OC
6. COc1cc(/C(=C\C#N)c2csc(-c3ccccc3)n2)cc(OC)c1OC [2c-cis]

1. > 10000 nM
2. > 20000 nM
3. > 10000 nM
4. > 10000 nM
5. > 10000 nM
6. ~10000 nM

* * *

system: PPC-1; assay: cells; conditions: Homo sapiens, PPC-1, 96 h, read-out: IC50 ± SEM (nM), PPC-1
REPORTED_ENDPOINT: IC50 (nM)
Answers are plain numbers, in nM.

Example entries and their recorded answers appear below.
COMPOUND	IC50, nM
COc1cc(C(=O)c2csc(-c3ccccc3)n2)cc(OC)c1OC	43
COc1cc(C(=O)c2csc(-c3ccc(O)cc3)n2)cc(OC)c1OC	76

Hey, quick one: what's IC50 for each of these?
1. CN(C)c1ccc(-c2nc(C(=O)c3ccc(F)cc3)cn2S(=O)(=O)c2ccccc2)cc1 [11gb]
2. COc1cc(C(=O)c2csc(-c3ccc(CNC(=O)OC(C)(C)C)cc3)n2)cc(OC)c1OC [68a]

48
2700

Hey, quick one: what's IC50 for each of these?
1. COc1cc(C(=O)c2cccc(-c3ccccc3)c2)cc(OC)c1OC
2. COc1ccc(-c2nc(C(=O)c3cc(OC)c(OC)c(OC)c3)cn2S(=O)(=O)c2ccccc2)cc1OC [11ha]
3. COc1cc(Sc2cccc(-c3ccccc3)c2)cc(OC)c1OC
4. COc1cc(C(=NC#N)c2csc(-c3ccccc3)n2)cc(OC)c1OC
5. COc1cc(C(=C(C)C)c2csc(-c3ccccc3)n2)cc(OC)c1OC

[85, 117, 2300, 20, 2040]

Hey, quick one: what's IC50 for each of these?
1. COc1cc(C(=O)c2c[nH]c(-c3ccc(OCc4ccccc4)cc3)n2)cc(OC)c1OC [12ja]
2. COc1cc(C(=O)c2csc(-c3cc4ccccc4[nH]3)n2)cc(OC)c1OC [62a]
3. COc1cc(C(=O)c2csc(Nc3ccccc3)n2)cc(OC)c1OC

1: 2840; 2: 28; 3: 54

Quick check: IC50 of COc1cc(C(=O)c2c[nH]c(-c3ccc(Cl)cc3)n2)cc(OC)c1OC [12fa] ? 26
